assay: Solid oral delivery of PYY[3-36] in feed restricted rats (serum PYY radioimmunoassay); assay type: in vivo, Male Sprague Dawley rats; details: 1 tablet per animal, Delivery Agent 100 mg/kg, PYY[3-36] 0.3 mg/kg
Attribute: Mean serum peak of PYY (pg/ml) ± SD
measured-parameter: Mean serum peak of PYY (pg/ml) ± SD (pg/mL)

>>> quantitative_readout("O=C(O)CCCCCCCOc1ccc(O)cc1 [Delivery Agent 18, 8-(4-hydroxyphenoxy)octanoate]")
1216.13
>>> quantitative_readout("Cc1ccc(O)c(C(=O)NCCCCCCCC(=O)O)c1")
1309.8
>>> quantitative_readout("O=C(O)CCCCCCCNC(=O)c1cc(Cl)ccc1O")
1064.18
>>> quantitative_readout("COc1ccc(C(=O)NCCCCCCCC(=O)O)c(O)c1")
1821.82
